tested on: CP262; assay: qHTS profiling for inhibitors of Plasmodium falciparum proliferation (AID 504749);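 note: 0% = DMSO vehicle and full inhibition = artemisinin control; nearly all actives have a fitted effect of over 60% in size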; details: P. falciparum in erythrocytes, SYBR Green DNA, 72 h; series mostly up to 28.7 µM
Records with an inconclusive call do not appear. The source made the active and inactive calls. Calls come from the whole dose curve; as a rule, active = well fitted inhibition curve with a large enough effect; inconclusive = small, poorly fitted or top-dose-only effect; inactive = flat fitted curve, though single readings scatter.
MEASURED_METRIC: outcome

| COMPOUND_STRUCTURE | ASSAY_SYSTEM | ASSAY_RESULT |
| --- | --- | --- |
| NC1CCN(c2cccc(Cl)n2)CC1 | CP262 | inactive |
| Cc1cccc(C)c1NC(=O)CN(CC(=O)O)CC(=O)O | CP262 | inactive |
| COc1ccc(Cl)cc1C(=O)NCCc1ccc(S(=O)(=O)NC(=O)NC2CCCCC2)cc1 | CP262 | inactive |

* * *

assay: Cell Viability - LYMP2-023 (AID 975); conditions: LYMP2-023 lymphoblastoid cell viability; series mostly up to 92.2 µM;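 note: cells exposed to compound for 24 hours at 37 °C; nearly all actives have a fitted effect of over 55% in size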
Inconclusive results are not listed. Activity calls are given as the source filed them. Calls come from the whole dose curve; as a rule, active = well fitted cell-killing curve with a large enough effect; inconclusive = small, poorly fitted or top-dose-only effect; inactive = flat fitted curve, though single readings scatter.
Respond with a class label; see true = active, false = inactive

Use these answered entries as a reference point.
| COMPOUND_STRUCTURE | CAT |
| --- | --- |
| Cc1c(O)cccc1C(=O)N[C@@H](CSc1ccccc1)[C@H](O)CN1C[C@H]2CCCC[C@H]2C[C@H]1C(=O)NC(C)(C)C | true |
| CCCCCCCCCCCCOS(=O)(=O)O | false |
| O=C1c2c(O)cccc2Cc2cccc(O)c21 | false |

Query: I would be grateful if you could indicate the recorded call for C[C@]12C[C@H](O)[C@H]3[C@@H](CCC4=CC(=O)CC[C@@]43C)[C@@H]1CC[C@@H]2C(=O)CO .
Response: false

Query: # lookup: test call for O=C1O[C@H]([C@@H](O)CO)C(O)=C1O
Response: false

* * *

Assay: qHTS of pediatric cancer cell lines to identify multiple opportunities for drug repurposing: Confirmatory screen for Rh30 cells (AID 1347126); note: % is set by controls: 0 for no effect and ±100 for the full control effect; nearly all actives have a fitted effect of over 55% in size
Conditions: Rh30 rhabdomyosarcoma cell viability; series mostly up to 45.9 µM
Experimental: Drug repurposing or repositioning has been offered as a strategy for drug development in oncology programs. […] [1] Shen, M et al. Quantitative high-throughput phenotypic screening of pediatric cancer cell lines identifies multiple opportunities for drug repurposing. […] Cells were assayed in growth media at a density of 500-1,000 cells/well. […] After a 15 min incubation at room temperature, samples were analyzed for luminescence intensity using a ViewLux High-throughput CCD imager equipped with clear filters.
Results filed as inconclusive are left out. Active and inactive are the calls of the source. Calls follow the shape of the dose curve; as a rule, active = well fitted cell-killing curve with a large enough effect; inconclusive = small, poorly fitted or top-dose-only effect, or effect the other way; inactive = no such curve, though single readings can be large or run the other way.
MEASURED_METRIC: activity change, negative = cytotoxic

Before answering, review these 4 worked examples.
| COMPOUND_STRUCTURE | activity change, negative = cytotoxic |
| --- | --- |
| O=C1N=C(O)CN1/N=C/c1ccc(-c2ccc([N+](=O)[O-])cc2)o1 | inactive |
| O=c1cc[nH]c(=S)[nH]1 | inactive |
| CCN(CC)CCNC(=O)c1cc(Cl)c(N)cc1OC | inactive |
| Cc1ccc2nc(N)[nH]c(=O)c2c1Sc1ccncc1 | inactive |

We now examine a further compound.
Query: Annotate the compound C[C@](N)(Cc1ccc(O)cc1)C(=O)O with its measured activity change, negative = cytotoxic.
Response: 0% [at 5.01 µM] (inactive)

* * *

test system: HEK293; assay: Cytotoxic Profiling of Annotated Libraries Using Quantitative High-Throughput Screening (AID 1296008); details: Five cell lines viability, CellTiter-Glo ATP luminescence, 48-72 h; note: nearly all actives have a fitted effect of over 60% in size
Results filed as inconclusive are left out. The source made the active and inactive calls. The call rests on the fitted dose curve; in most records, active means well fitted inhibition curve with a large enough effect; inconclusive means small, poorly fitted or top-dose-only effect; inactive means flat fitted curve, though single readings scatter.
Reply using exactly one outcome from 1.0 = active, 0.0 = inactive

Example results:
| COMPOUND | CAT |
| --- | --- |
| CC1CC(OC(=O)C(O)c2ccccc2)CC(C)(C)N1C (stereo not given) | 0.0 |
| CN(C)CCN(Cc1ccccc1)c1ccccn1 | 0.0 |
| COc1cc(C)c(Cc2cnc(N)nc2N)cc1OC | 0.0 |
| N[C@@H](CSCCCO)C(=O)O | 0.0 |

Query: // return assay outcome for NCCNCCNCCN
Response: 0.0

Query: Please indicate how the test categorized CO/N=C(\C(=O)N[C@@H]1C(=O)N2C(C(=O)O)=C(CSc3nc(=O)c(O)nn3C)CS[C@H]12)c1csc(N)n1 .
Response: 0.0

Query: Give the logged outcome of this assay for the following compound: CCCOC(=O)c1ccccc1
Response: 0.0

Query: For C[C@]12CC[C@@H]3c4ccc(O)cc4CC[C@H]3[C@@H]1CCC2=O , which call appears in the assay record?
Response: 0.0

Query: Per the assay record, what outcome was assigned to C[C@@H]1CCN(C(=O)[C@H](CCCN=C(N)N)NS(=O)(=O)c2cccc3c2NC[C@H](C)C3)[C@@H](C(=O)O)C1 ?
Response: 0.0

Query: Give the logged outcome of this assay for the following compound: Cc1cc(CC(=O)O)n(C)c1C(=O)c1ccc(Cl)cc1
Response: 0.0

Query: Dear all, I need the recorded test outcome for O=C(O)CC(O)C(=O)O (stereo not given) , thank you.
Response: 0.0

Query: Answer briefly: the call reported for CCCCN(CCCC)CCCOC(=O)c1ccc(N)cc1 in this assay.
Response: 0.0
